Hello, the source for this data is the supplement of paper PMC8728848, in case you need it.

# glycan array binding signal (z-score) listing for each entry below
# testedSystem: Gal(b1-3)GalNAc(a1-3)[Fuc(a1-2)]Gal(b1-4)GlcNAc
# protocolSummary: glycan array binding signal (z-score within array); higher = stronger binding
# conditionSet: glycan notation: IUPAC condensed, linker removed
The entries come from a sample that favours the strongest signals as a whole.
endpoint: glycan array binding signal (z-score)

# binder, endpoint, reportedValue
measured = [
    ("Eosinophil-derived neurotoxin (EDN) (Homo sapiens), P10153 (protein) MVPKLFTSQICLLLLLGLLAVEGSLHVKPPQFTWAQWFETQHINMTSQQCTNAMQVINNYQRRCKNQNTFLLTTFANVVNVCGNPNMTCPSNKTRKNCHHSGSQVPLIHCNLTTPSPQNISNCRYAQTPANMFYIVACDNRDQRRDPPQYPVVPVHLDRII", "glycan array binding signal (z-score)", 0.269),
    ("Epa7 (Candida glabrata), Q6DTM6_CANGB (protein) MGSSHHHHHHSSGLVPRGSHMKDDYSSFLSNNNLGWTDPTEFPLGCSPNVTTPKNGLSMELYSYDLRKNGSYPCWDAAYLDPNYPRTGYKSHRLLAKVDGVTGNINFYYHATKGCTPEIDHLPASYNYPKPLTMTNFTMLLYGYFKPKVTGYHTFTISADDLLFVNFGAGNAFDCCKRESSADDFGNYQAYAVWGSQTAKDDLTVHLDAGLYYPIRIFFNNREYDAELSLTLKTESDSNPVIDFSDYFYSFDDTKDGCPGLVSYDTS", "glycan array binding signal (z-score)", 5.59),
    ("Flo1 (Saccharomyces cerevisiae), P32768 (protein) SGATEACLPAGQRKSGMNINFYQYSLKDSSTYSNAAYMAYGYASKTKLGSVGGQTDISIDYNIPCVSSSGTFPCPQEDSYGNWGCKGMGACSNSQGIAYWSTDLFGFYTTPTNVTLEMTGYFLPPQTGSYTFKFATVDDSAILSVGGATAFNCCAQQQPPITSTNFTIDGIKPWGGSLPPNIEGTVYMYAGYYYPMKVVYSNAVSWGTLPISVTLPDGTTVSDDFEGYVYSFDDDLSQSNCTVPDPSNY", "glycan array binding signal (z-score)", -0.653),
]
